# Assayed Target: Galectin-9 (Homo sapiens, UniProt O00182)
# Sequence (O00182 whole entry): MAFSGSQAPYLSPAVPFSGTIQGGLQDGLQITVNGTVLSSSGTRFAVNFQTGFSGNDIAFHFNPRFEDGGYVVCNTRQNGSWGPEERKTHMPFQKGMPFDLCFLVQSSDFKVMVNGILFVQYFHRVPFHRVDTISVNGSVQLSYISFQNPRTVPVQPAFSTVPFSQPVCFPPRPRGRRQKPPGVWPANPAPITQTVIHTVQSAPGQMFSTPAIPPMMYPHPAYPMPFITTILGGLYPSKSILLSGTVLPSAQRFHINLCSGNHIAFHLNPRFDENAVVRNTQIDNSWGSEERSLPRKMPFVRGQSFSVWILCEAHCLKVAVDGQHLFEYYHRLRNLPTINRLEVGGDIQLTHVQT
# Procedure Details: Binding affinity to N-terminal human Galectin-9 assessed as dissociation constant by fluorescence polarization assay
Property Name: Kd (µM)

> print(dat)
                                   compound  measured.value
1  OC[C@H]1O[C@H](Sc2cc(Cl)c(F)c(Cl)c2)[C@H](O)[C@@H](n2cc(-c3nccs3)nn2)[C@H]1O              16

====

# Assayed Target: Galectin-4 (Homo sapiens)
# Sequence (P56470 whole entry): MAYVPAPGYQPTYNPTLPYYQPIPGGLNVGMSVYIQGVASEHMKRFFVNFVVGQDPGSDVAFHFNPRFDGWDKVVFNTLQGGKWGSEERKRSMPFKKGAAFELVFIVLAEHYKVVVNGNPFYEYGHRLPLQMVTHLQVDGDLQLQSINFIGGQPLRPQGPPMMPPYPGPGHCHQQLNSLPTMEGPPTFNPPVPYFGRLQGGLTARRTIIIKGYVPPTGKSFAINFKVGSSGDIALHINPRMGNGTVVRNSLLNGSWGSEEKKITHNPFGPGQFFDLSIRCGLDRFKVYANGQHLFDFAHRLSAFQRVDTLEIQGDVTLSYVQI
# Procedure Details: Binding affinity to C-terminal human Galectin-4 assessed as dissociation constant by fluorescence polarization assay
Property Name: Kd (nM)

> print(dat)
                                   compound  measured.value
1  OC[C@H]1O[C@H](Sc2cc(Cl)c(F)c(Cl)c2)[C@H](O)[C@@H](n2cc(-c3nccs3)nn2)[C@H]1O            2500
